// data source = patent US20240150377A1

molecular target: CFTR (Homo sapiens, UniProt P13569, DEL508-508); construct: endogenous in cells; host or cells: primary human bronchial epithelial cells from CF subjects (F508del/MF-HBE), differentiated at air-liquid interface; assay: HBE assay: Ussing chamber assay of CFTR-mediated short-circuit currents; format: cell-based; conditions: HBE assay; read-out: HBE Max activity (%)
Sequence (P13569 with tags, fused parts or gaps DEL508-508): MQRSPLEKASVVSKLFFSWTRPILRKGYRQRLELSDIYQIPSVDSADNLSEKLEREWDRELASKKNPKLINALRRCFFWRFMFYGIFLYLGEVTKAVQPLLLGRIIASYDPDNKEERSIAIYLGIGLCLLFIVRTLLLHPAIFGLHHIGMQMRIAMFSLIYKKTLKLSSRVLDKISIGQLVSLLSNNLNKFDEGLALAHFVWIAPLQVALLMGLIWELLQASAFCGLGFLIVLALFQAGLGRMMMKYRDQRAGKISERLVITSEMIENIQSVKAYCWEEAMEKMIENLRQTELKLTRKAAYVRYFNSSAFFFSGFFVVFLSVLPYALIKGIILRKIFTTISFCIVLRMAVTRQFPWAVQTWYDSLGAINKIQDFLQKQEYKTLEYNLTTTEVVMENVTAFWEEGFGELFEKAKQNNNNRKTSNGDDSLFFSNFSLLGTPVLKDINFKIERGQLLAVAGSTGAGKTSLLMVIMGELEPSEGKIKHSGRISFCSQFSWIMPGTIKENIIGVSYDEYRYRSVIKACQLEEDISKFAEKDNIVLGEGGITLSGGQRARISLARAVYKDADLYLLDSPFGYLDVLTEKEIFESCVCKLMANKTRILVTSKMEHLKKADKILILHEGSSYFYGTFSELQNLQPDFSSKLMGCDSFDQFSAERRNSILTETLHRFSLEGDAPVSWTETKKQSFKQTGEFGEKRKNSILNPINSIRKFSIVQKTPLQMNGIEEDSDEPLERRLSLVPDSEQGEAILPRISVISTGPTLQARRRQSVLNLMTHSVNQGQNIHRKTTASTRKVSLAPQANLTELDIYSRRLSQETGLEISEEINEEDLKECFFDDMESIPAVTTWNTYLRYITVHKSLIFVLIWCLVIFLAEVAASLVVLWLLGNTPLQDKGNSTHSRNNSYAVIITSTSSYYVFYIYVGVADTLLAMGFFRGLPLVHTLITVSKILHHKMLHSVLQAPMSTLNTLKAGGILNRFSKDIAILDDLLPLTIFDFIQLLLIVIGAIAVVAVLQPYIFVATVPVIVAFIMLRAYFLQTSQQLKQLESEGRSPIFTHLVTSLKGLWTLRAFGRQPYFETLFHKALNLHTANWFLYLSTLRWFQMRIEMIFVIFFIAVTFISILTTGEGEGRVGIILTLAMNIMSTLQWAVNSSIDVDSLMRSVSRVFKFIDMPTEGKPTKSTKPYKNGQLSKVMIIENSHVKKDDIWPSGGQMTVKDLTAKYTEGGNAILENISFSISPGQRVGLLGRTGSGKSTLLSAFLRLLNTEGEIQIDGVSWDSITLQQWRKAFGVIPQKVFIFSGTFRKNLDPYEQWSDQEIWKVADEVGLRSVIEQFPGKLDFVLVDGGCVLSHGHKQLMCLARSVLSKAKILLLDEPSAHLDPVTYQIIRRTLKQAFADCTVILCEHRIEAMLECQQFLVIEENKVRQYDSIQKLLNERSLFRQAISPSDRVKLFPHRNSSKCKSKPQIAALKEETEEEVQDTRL
quantity_kind: Emax

Query: Tell us which Emax value is on record for COC(C)(C)CNc1cncc(CN2C(=O)c3cccc(c3)S(=O)(=O)Nc3nc(cc(-c4c(C)cccc4C)n3)OC[C@H]2CC(C)(C)C)n1
Reply: > 60%

Query: Tell us which Emax value is on record for CCOc1cnc(CN2C(=O)c3cccc(c3)S(=O)(=O)Nc3nc(cc(-c4c(C)cccc4C)n3)OC[C@H]2CC2CCC2)nc1
Reply: > 60%

Query: Tell us which Emax value is on record for COCCCOc1cnc(CN2C(=O)c3cccc(c3)S(=O)(=O)Nc3nc(cc(-c4c(C)cccc4C)n3)OC[C@H]2CC(C)(C)C)c(F)c1
Reply: > 60%
